# System under test: UniProt:A0A1B0Y357
# Type: biochemical
# Condition description: recombinant coral isoform, stopped-flow CO2 hydration, 20 mM TRIS pH 8.3, 15 min preincubation; errors 5–10%, 3 assays; read-out: KI SpiCA3
The entries below are paired with their reported Ki.
Measure name: Ki (nM)

> print(dat)
                                    molecule  measure.name   u  assay.value
 1        NS(=O)(=O)c1ccc(N2CCCCS2(=O)=O)cc1            Ki  nM          251
 2                     NS(=O)(=O)c1ccc(O)cc1            Ki  nM          487
 3       Nc1cc(Cl)c(S(N)(=O)=O)cc1S(N)(=O)=O            Ki  nM          430
 4            NS(=O)(=O)c1cccc(S(N)(=O)=O)c1            Ki  nM          667
 5  Nc1ccc(S(=O)(=O)NCc2ccc(S(N)(=O)=O)cc2)cc1            Ki  nM           62
 6                   Nc1ccc(S(N)(=O)=O)cc1Br            Ki  nM          918
 7                NS(=O)(=O)c1ccc(C(=O)O)cc1            Ki  nM          241
 8  Nc1ccc(S(=O)(=O)Nc2ccc(S(N)(=O)=O)cc2)cc1            Ki  nM          568
 9                    Cn1nc(S(N)(=O)=O)sc1=N            Ki  nM          578
10  CC(=O)/N=c1/sc(S(N)(=O)=O)nn1C [MZA, methazolamide]            Ki  nM          821
11                      Nc1nnc(S(N)(=O)=O)s1            Ki  nM          275
12  NS(=O)(=O)c1ccc(CCNS(=O)(=O)c2ccc([N+](=O)[O-])cc2CO)cc1            Ki  nM           53
13                    NS(=O)(=O)c1ccc(CO)cc1            Ki  nM          199
14                   Nc1ccc(S(N)(=O)=O)cc1Cl            Ki  nM         1810
15  NS(=O)(=O)c1ccc(S(=O)(=O)Nc2cccc3c(Cl)c[nH]c23)cc1            Ki  nM           92

###

# System under test: SpiCA3 (Stylophora pistillata, UniProt A0A1B0Y357)
# Sequence (A0A1B0Y357 entry or part of it): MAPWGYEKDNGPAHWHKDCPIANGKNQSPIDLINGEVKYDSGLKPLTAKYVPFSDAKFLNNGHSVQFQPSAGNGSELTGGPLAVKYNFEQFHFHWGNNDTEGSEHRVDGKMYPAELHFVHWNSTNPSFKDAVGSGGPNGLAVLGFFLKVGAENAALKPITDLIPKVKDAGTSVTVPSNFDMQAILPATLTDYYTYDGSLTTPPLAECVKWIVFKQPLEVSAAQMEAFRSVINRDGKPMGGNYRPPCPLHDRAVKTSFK
# Format: biochemical
# Condition description: read-out: KI SpiCA3; recombinant coral isoform, stopped-flow CO2 hydration, 20 mM TRIS pH 8.3, 15 min preincubation; errors 5–10%, 3 assays
pKi: −log10 of the molar value.
Measure name: pKi

> print(dat)
                                   molecule  measure.name  assay.value
1  Nc1ccc(S(=O)(=O)NCCc2ccc(S(N)(=O)=O)cc2)cc1           pKi         7.34
2          Nc1nccc(Nc2ccc(S(N)(=O)=O)cc2)n1           pKi         7.08
3  Nc1ccc(S(=O)(=O)Nc2nnc(S(N)(=O)=O)s2)cc1           pKi         7.13
4  NS(=O)(=O)c1nnc(NS(=O)(=O)c2ccccc2)s1 [BZA, benzolamide]           pKi         6.40
5                     Cc1ccc(S(N)(=O)=O)cc1           pKi         6.16
6  CCN[C@H]1CN(CCCOC)S(=O)(=O)c2sc(S(N)(=O)=O)cc21 [BRZ, brinzolamide]           pKi         6.60
7                   NS(=O)(=O)c1ccc(CCO)cc1           pKi         7.18
8  Nc1cc(C(F)(F)F)c(S(N)(=O)=O)cc1S(N)(=O)=O           pKi         6.07
9  NS(=O)(=O)c1cc2c(cc1Cl)NCNS2(=O)=O [HCT, hydrochlorothiazide]           pKi         6.61
